Provide the recorded gcPBM binding intensity (ln) for the entries that follow.
Test system: PfAP2-LT AP2 domain (GST-tagged)
protocol notes: gcPBM binding intensity (ln(normalized median fluorescence intensity)); higher = stronger DNA binding
Whole data set: some 25,000 sequences, median “ln(normalized median fluorescence intensity)” near 8.9, cut for the highest 2% near 10. The full list was thinned out, with the highest values kept by preference.
# answer = number (no unit)

Incoming: What measured gcPBM binding intensity (ln) goes with ATTAATAAATAAATGACACACACACCCACAAAAAAA [CACACA_site8839] ?
Outgoing: 9.9

Incoming: Return reported gcPBM binding intensity (ln); argument: CAAAAAATGAAACACACACACACACCCATAAATAAA [CACACA_site1231]
Outgoing: 10.1

Incoming: Quick one: gcPBM binding intensity (ln) of ATGGGACATATATATACACACATATATATATATATA [CACACA_site1202] ?
Outgoing: 9.96

Incoming: GET /values?readout=gcPBM binding intensity (ln)&item= AAAAATTTGGCATACACACACACACGCACACGCACA [CACACA_site6422]
Outgoing: 10.2

Incoming: Which gcPBM binding intensity (ln) value is on record for GGTATACACAAGTATACACACATATATATATATATA [CACACA_site9063] ?
Outgoing: 10.2

Incoming: I have this sequence here, AAAAATTTGGCATACACACACACACCGACACAGACA [CACACA_site4489] , and I need its recorded gcPBM binding intensity (ln).
Outgoing: 10

Incoming: May I ask what gcPBM binding intensity (ln) has been recorded for TAATAAATAAATGACACACACACACCCAAAAAAAAA [CACACA_site2623] ?
Outgoing: 10.1
